test system: PSN1 cells, pERK; experiment: Inhibition of KRas phosphorylation of ERK (Cisbio HTRF Advanced pERK assay); assay type: cell-based; settings: Homo sapiens, PSN1, 3 h, read-out: Inhibition (HTRF IC50 nM) of KRas-mediated Phosphorylation of ERK, PSN1
Each item that follows carries a reported IC50.
State the answer as a number, implicitly in nM.

Sample records with IC50:
Exercise: # input molecule: C[C@@]1(O)CCCN(c2nc(OC[C@@]34CCCN3C[C@H](F)C4)nc3c2CCN(c2cc(O)cc4ccc(F)c(Cl)c24)C3)C1 ; wanted: its IC50
Solution: 2260

Exercise: # input molecule: CCc1c(F)ccc2cc(O)cc(N3CCc4c(nc(OC[C@@]56CCCN5C[C@H](F)C6)nc4N4CCCC5(CNS(=O)(=O)N5)C4)C3)c12 (stereo partly shown) ; wanted: its IC50
Solution: 3650

Now consider the entry below.
Exercise: # input molecule: CCc1c(F)ccc2cc(O)cc(N3CCc4c(nc(OCC5(CN(C)C)CC5)nc4N4CCCC5(CNS(=O)(=O)N5)C4)C3)c12 (stereo not shown) ; wanted: its IC50
Solution: 3900
